B1: 2M8U (parent)
chain: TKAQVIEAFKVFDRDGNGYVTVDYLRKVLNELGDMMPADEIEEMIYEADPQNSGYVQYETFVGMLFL

variants of: B1; experiment: folding stability dG (cDNA display proteolysis); higher = more stable; conditions: PBS, room temperature
folding stability dG listing for selected variants.

Examples from the recorded data:
[
  {
    "MUTATION LIST": "Y58F",
    "folding stability dG": "2.81 kcal/mol"
  },
  {
    "MUTATION LIST": "V28M",
    "folding stability dG": "2.65 kcal/mol"
  },
  {
    "MUTATION LIST": "E31D",
    "folding stability dG": "3.62 kcal/mol"
  }
]

Fill blank: measured folding stability dG of the variant V22Q is ____.
2.95 kcal/mol

Fill blank: measured folding stability dG of the variant G18N is ____.
2.23 kcal/mol

Source listed as the MegaScale stability set (Tsuboyama et al. 2023).
